test system: 786-0 renal; experiment: NCI tumour cell line growth inhibition, 48 h
parameter: TGI

Illustrative cases are given below, each with its answer.
compound | subject_of_test | TGI
C=CCN1C(=O)/C(=C\c2cc(C(C)(C)C)c(O)c(C(C)(C)C)c2)NC1=S | 786-0 renal | 55.7 µM
CC(=O)O/C=C1/C[C@H]2[C@@H]3CCC4CC(C(C)=O)CC[C@]4(C)[C@H]3CC[C@]2(C)C1=O (stereo partly specified) | 786-0 renal | > 100 µM
N#CC(C#N)=C/C=C(\Sc1c(Cl)c(Cl)nc(Cl)c1Cl)c1ccc(Cl)cc1 | 786-0 renal | 27.5 µM

Q) # value lookup — system 786-0 renal, readout TGI, item CCOC(=O)/C(=C\c1ccc(N(CCC#N)CCC#N)cc1)NC(=O)c1cc([N+](=O)[O-])ccc1Cl
A) > 100 µM

Q) And what about the compound COc1cc2ncn(-c3cc(O[C@@H](C)c4ccccc4Cl)c(C(N)=O)s3)c2cc1OC ?
A) > 25 µM

Q) And what about the compound CCOC(=O)Cc1ccc2c(c1O)C(=O)c1c(ccc(CC(=O)OCC)c1O)C2=O ?
A) > 100 µM

Q) And what about the compound CC1C/C(=C\c2ccc(OC(=O)C(C)(C)C)cc2)C(=O)/C(=C/c2ccc(OC(=O)C(C)(C)C)cc2)C1 (stereo unspecified) ?
A) > 100 µM

Q) And what about the compound CC(C)[O-].CC(C)[O-].O=C1C=C([O-])C(=O)c2ccccc21.O=C1C=C([O-])C(=O)c2ccccc21.[Ti+4] ?
A) > 100 µM

Q) And what about the compound C=C(NC(=O)C(=C)NC(=O)c1csc(C2=NC3c4csc(n4)C4NC(=O)c5csc(n5)C(C(C)(O)C(C)O)NC(=O)C5CSC(=N5)C(=CC)NC(=O)C(C(C)O)NC(=O)c5csc(n5)C3(CC2)NC(=O)C(C)NC(=O)C(=C)NC(=O)C(C)NC(=O)C(C(C)CC)NC2C=Cc3c(C(C)O)cc(nc3C2O)C(=O)OC4C)n1)C(N)=O (stereo unspecified) ?
A) 19.7 µM

Q) And what about the compound COc1cc(S(=O)(=O)Nc2nc(-c3ccc(N4C(=O)/C(=C/C=C/c5ccccc5)N=C4c4ccccc4)cc3)cs2)ccc1Cl ?
A) > 100 µM

Q) And what about the compound CC1(C)CC2=C(Sc3ccccc3N2)C(=O)C1C(=O)C(=O)Nc1cccc([N+](=O)[O-])c1 (stereo unspecified) ?
A) > 100 µM

====

# Lookup of reported GI50 keyed by entry
tested on: MDA-MB-435

Illustrative cases are given below, each with its answer.
compound_string | GI50
CC(=O)N1C/C(=C/c2ccc(Cl)cc2)C(=O)/C(=C/c2ccc(Cl)cc2)C1 | 0.43 µM
COc1cccc(/C=C/[N+](=O)[O-])c1 | 2.69 µM

Q) # value lookup — system MDA-MB-435, readout GI50, item COC(=O)c1cc2c3ccccc3n3c(=O)c4cc5ccccc5nc4c(n1)c23
A) > 100 µM

====

system: SW-620 colon; assay: NCI tumour cell line growth inhibition, 48 h
# Lookup of reported TGI keyed by entry

Illustrative cases are given below, each with its answer.
compound | subject_of_test | TGI
Nc1nc(Cl)c(/C=N\O)c(NCC2(CO)CCC2)n1 | SW-620 colon | > 100 µM
CCN(CC)c1ccc2cc(C(N)=S)c(=N)oc2c1 | SW-620 colon | > 100 µM
COc1ccc2cc3[nH]c(=O)cc(O)c3cc2c1OC | SW-620 colon | > 100 µM
O=S(=O)(c1ccccc1)C(c1ccc2ccccc2n1)S(=O)(=O)c1ccccc1 | SW-620 colon | > 100 µM
Nn1c(CCCCCCCCc2nnc(COc3ccc4ccccc4c3O)n2N)nnc1COc1ccc2ccccc2c1O | SW-620 colon | > 100 µM

Now look at this entry.
Q) # value lookup — system SW-620 colon, readout TGI, item CCO/C=N\c1c(C#N)c(-c2ccc(Cl)cc2)cn1-c1ccc(C)cc1
A) > 100 µM
